Test system: HSkMC (human skeletal muscle cells)
Experimental Details: cytotoxicity call (relative viability < 0.9)
Study Conditions: 10 µM
In all, about 39,000 compounds went through this assay and about 1,500 (3.8%) were called active. The full list was thinned out, with actives kept by preference.
Select the matching outcome among active, inactive

C[C@H](CO)N1C[C@H](C)[C@H](CN(C)C(=O)Nc2cccc3ccccc23)OCCCC[C@H](C)Oc2ccc(NC(=O)Nc3ccc(C(F)(F)F)cc3)cc2C1=O = inactive
COc1ccc(Oc2cc(NCCC(F)(F)F)c3ncc(-c4ccc(C(=O)NC5CC5)c(C)c4)n3n2)c(F)c1F = active
C[C@@H]1CN([C@H](C)CO)S(=O)(=O)c2ccc(C#Cc3ccccc3)cc2O[C@@H]1CN(C)S(=O)(=O)c1ccccc1F = inactive
C[C@@H]1CN([C@@H](C)CO)C(=O)c2ccccc2-c2ccccc2CO[C@@H]1CN(C)Cc1cccc(C(F)(F)F)c1 = active
Cc1ccc(S(=O)(=O)Nc2ccc3c(c2)CC(=O)N([C@H](C)CO)C[C@H](C)[C@@H](CN(C)Cc2ccncc2)O3)cc1 = inactive
COc1ccc(S(=O)(=O)N(C)C[C@@H]2Oc3ccc(NS(C)(=O)=O)cc3CC(=O)N([C@H](C)CO)C[C@H]2C)cc1 = inactive
C[C@@H]1CN([C@@H](C)CO)C(=O)c2cc(NC(=O)Nc3ccc(C(F)(F)F)cc3)ccc2O[C@@H](C)CCCCO[C@H]1CN(C)C(=O)Nc1cccc2ccccc12 = inactive
Cc1ccc(S(=O)(=O)N(C)C[C@H]2Oc3ccc(NC(=O)Nc4ccc(C(F)(F)F)cc4)cc3C(=O)N([C@H](C)CO)C[C@H]2C)cc1 = active
C[C@H](CO)N1C[C@H](C)[C@@H](CN(C)C(=O)Nc2cccc3ccccc23)OCCCC[C@H](C)Oc2ccc(NC(=O)Nc3ccc(C(F)(F)F)cc3)cc2C1=O = inactive
C[C@@H]1CCCCO[C@@H](CN(C)C(=O)Nc2cccc3ccccc23)[C@@H](C)CN([C@H](C)CO)C(=O)c2cc(NC(=O)Nc3ccc(C(F)(F)F)cc3)ccc2O1 = active

What did the test return for C[C@@H]1CCCCO[C@@H](CN(C)C(=O)Nc2cccc3ccccc23)[C@H](C)CN([C@@H](C)CO)C(=O)c2cc(NC(=O)Nc3ccc(C(F)(F)F)cc3)ccc2O1 ?
inactive

What did the test return for C[C@@H]1CN([C@H](C)CO)C(=O)c2ccccc2-c2ccccc2CO[C@@H]1CN(C)Cc1ccc(Oc2ccccc2)cc1 ?
inactive
